These entries and their values trace back to PubChem BioAssay (NCI).

tested on: OVCAR-5 ovarian; experiment: NCI-60 one-dose screen, 48 h (100 = growth as untreated, 0 = no growth, -100 = all killed); details: 10 µM unless noted
About 83,000 compounds went through this panel and 20% of them were active in at least one assay; those are over-represented in the sample as a whole.
Measured Endpoint: growth (%)

                                   compound  data_value
0             Cc1cc(N/C=c2\sc3ncnn3c2=O)no1         108
1   Cc1cc(Nc2nc(-c3ccncc3)nc3ccccc23)n[nH]1        87.1
2  O=C(c1c[nH]c2ccccc12)C(Sc1nc2ccccc2c(=O)[nH]1)c1ccccc1 (centres undefined)          88
3  COc1cc(/C=C/C(=O)c2ccccc2O)ccc1OCCCOc1cc2c(cc1OC)C(=O)N1CCC[C@H]1C=N2       0.483
4  COC1=CC(c2ccc[nH]2)=N/C1=C\c1[nH]c(C)c(C(=O)CCCCC(=O)NCc2ccccc2)c1C        47.3
5  CCN(CC)S(=O)(=O)c1ccc2[nH]c(=O)cc(C(=O)Nc3ccc(OC)cc3OC)c2c1         100
6  CCCS(=O)(=O)c1nc(NC2CC2)cc(-c2ccc3c(ccn3C3CC(C)(C)NC(C)(C)C3)c2)n1       -15.2
7  N#Cc1c(NC(=O)c2ccc([N+](=O)[O-])o2)[n+]([O-])c2cc(F)c(F)cc2[n+]1[O-]         108
8  c1cncc(CNc2ccccc2-c2nnc(Nc3ccc4c(c3)OCCO4)o2)c1        43.9

====

system: SNB-19 CNS; test: NCI-60 one-dose screen, 48 h (100 = growth as untreated, 0 = no growth, -100 = all killed); conditions: 10 µM unless noted
This is part of a sample that, as a whole, favours compounds with a hit. Of some 83,000 tested, about 20% had one in any assay.
Would you please tag the item true when its growth is 70% or above, and false when it is below?

Molecule	Class Assignment
CC1(C)OC2COC3(C(=O)O)OC(C)(C)OC3C2O1 (stereo not given)	true
COc1ccc(C(=O)c2cc(OC)c(OC)c(OC)c2)cc1/C=C/C(=O)c1ccc(OC)c(OC)c1	false
CCNc1nc(N2CC(=O)Nc3cc(OC)ccc32)c2ccccc2n1	false
CCNC(=O)CCCCC(=O)c1c(C)[nH]c(/C=C2\N=C(c3ccc[nH]3)C=C2OC)c1C	false
CC1CCc2c(sc(NC(=O)CSc3nnc4ccccn34)c2C(N)=O)C1 (stereo not given)	true
O=C1N=C(c2c(-c3[nH]c(=O)c4ccc(Br)cc4c3O)c(O)c3ccccc3c2O)C(=O)c2cc(Br)ccc21	false
OC1CC2c3ccccc3C1c1ccccc12 (stereo not given)	true
CCCOC(=O)C1(O)CCCC1	true
COc1cc2c(cc1OCCCCn1c(-c3cc(=O)c4ccccc4o3)nc3ccccc31)N=C[C@@H]1CCCN1C2=O	true
Nc1c(C(=O)Nc2cccc([N+](=O)[O-])c2)sc2nc3c(cc12)C(O)CCC3 (stereo not given)	true
COc1ccc(C2CC(c3cccs3)=NN2c2ccc(S(=O)(=O)NC(=O)Nc3ccc(C)cc3)cc2)cc1 (stereo not given)	true
Nc1c(C(=O)Nc2ccccc2)sc2nc3c(cc12)CCCCC3	false
CCC(C)NCC(=O)O (stereo not given)	true
O=C(Nc1ccc(I)cc1)c1cc([N+](=O)[O-])ccc1O	false
CCCCCCCCCCCCCCCCC(Br)C(=O)O (stereo not given)	true
O=C(CN1CCN(c2cc3c(cc2F)c(=O)c(C(=O)O)cn3C2CC2)CC1)Nc1ccc(C(=O)/C=C/c2ccccc2)cc1	false
COc1ccccc1CNCCCN1C(=O)c2ccc3c4c(ccc(c24)C1=O)C(=O)N(CCCNCCCCNCCCCN)C3=O	false
Nc1ccc(S(=O)(=O)c2ccc(Cl)cc2)cc1	true
COc1cccc(NC(=O)c2sc3nc4c(cc3c2N)CCCC4)c1	false
Cc1cc2c(C(C)C)c(O)c(O)c(C=NCCCCCCC(=O)O)c2c(O)c1-c1c(C)cc2c(C(C)C)c(O)c(O)c(C=NCCCCCCC(=O)O)c2c1O	false
CC(=O)Nc1ccc2c(c1)/C(=C\C=C/c1ccc([N+](C)(C)C)cc1)c1ccccc1-2	false
CC(C)[C@H](CO)Nc1nc(Nc2ccc(C(=O)NCCNS(=O)(=O)c3cccc4c(N(C)C)cccc34)c(Cl)c2)c2ncn(C(C)C)c2n1	false
COc1cc(C(=O)CCCl)ccc1O	true
Cc1cc(Nc2nc(C(=O)Nc3ccccc3)nc3ccccc23)n[nH]1	true
O=C1CCC/C=C\C[C@H]2C=CC(=O)/C2=C/C[C@H](C/C=C\CC(F)(F)F)O1	false
O=C1Nc2cc(Cl)ccc2Oc2cc(Oc3ccccc3)ccc21	true
COc1cc(OC)cc(-c2n[nH]nc2-c2ccc3c(c2)OCO3)c1	false
COc1ccc(C(=O)N2CCN(C(=O)c3cc(OC)c(OC)c(OC)c3)CC2)cc1OCCCCOc1cc2c(cc1OC)C(=O)N1CCC[C@H]1C=N2	true
COc1cc(/C=C2\CCCC3=C2N=C2SC(C)=NN2C3c2cc(OC)c(OC)c(OC)c2)cc(OC)c1OC (stereo not given)	false
CC(=O)Nc1ccc(S(=O)(=O)N2C(=O)CCC2C(=O)Nc2ccc(Br)cc2)cc1 (stereo not given)	false
c1ccn2nnnc2c1	true
CCN1C(=O)N(CC)C2C1NN=c1s/c(=C3\C(=O)N(C4CCCC4)c4ccccc43)c(=O)n12 (stereo not given)	false
O=C(CCC(=O)OC1CCCC1)OC1CCCC1	true
COc1cc(OC)c(C(=O)/C=C/c2ccc(C(F)(F)F)cc2)c(OC)c1	false
COc1ccc(NC(=O)c2cc3ccccc3nc2Nc2cc(OC)c(OC)c(OC)c2)cc1	true
CC(Cc1nnc(SCC(=O)Nc2ccc(I)cc2)n1N)c1ccccc1 (stereo not given)	true
Nc1nn2cc(-c3ccc(Cl)s3)nc2c2ccccc12	true
COC(=O)[C@H]1[C@H](OC)[C@@H](OC(=O)/C=C/c2ccncc2)CC2CN3CCc4c([nH]c5cc(OC)ccc45)[C@@H]3C[C@@H]21 (stereo not given in full)	true
COc1cccc(NC(=O)Cn2cc3c(=O)oc4ccccc4c3n2)c1	true
